system: T-47D breast; experiment: NCI tumour cell line growth inhibition, 48 h
TGI overview

Reference set (4 entries):
MOLECULE: COc1cc(C2c3cc4c(cc3[C@@H](Nc3ccc(F)cc3)C3COC[C@H]23)OCO4)cc(OC)c1O (stereo not given in full)
EXPERIMENTAL_RESULT: > 25 µM

MOLECULE: NC1=NC(c2ccccc2Cl)c2c(n[nH]c2N)N1 (stereo not given)
EXPERIMENTAL_RESULT: > 100 µM

MOLECULE: CC(C)OC(=O)C(NC(=O)C(CC(=O)OCc1ccccc1)NC(=O)OCc1ccccc1)NC(=O)C1C(C)(C)CCC1(C)C (stereo not given)
EXPERIMENTAL_RESULT: > 69.5 µM

MOLECULE: O=c1[nH]ncc2[nH]c3c(c12)CCc1ccccc1-3
EXPERIMENTAL_RESULT: 98.9 µM

Here is another molecule to look at.
Please report the recorded TGI for [O-][n+]1c2cccc(O)c2[n+]([O-])c2cccc(O)c21 .
> 100 µM

----------
# maps each entry to its TGI
system: IGROV1 ovarian; test: NCI tumour cell line growth inhibition, 48 h
The reply should be a number in µM, with the unit left off.

Below, 2 molecules whose answers are already recorded.
MOLECULE: C/C(=N\NC(=S)NC(C)(C)C)c1nc2ncccc2[nH]1
UNIT_OF_MEASURE: µM
TGI: 50.6

MOLECULE: C[C@]12CCc3nc(Nc4ccc(O)cc4)sc3C1=CC[C@@H]1[C@@H]2CC[C@]2(C)/C(=N/NC(N)=S)CC[C@@H]12
UNIT_OF_MEASURE: µM
TGI: 3

// query TGI value for entry [C-]#[O+].[Cl][Sn]([Cl])[Cl].[Cl][Sn]([Cl])[Cl].[Pt].c1cnc2c(c1)ccc1cccnc12
35.7

# lookup: TGI of BrC1(c2ccccc2)C[n+]2c(-c3ccccc3)cc(-c3ccccc3)cc2-c2ccccc21 (stereo not given)
5.14

----------
system: 786-0 renal; assay: NCI tumour cell line growth inhibition, 48 h
We begin with a simple list: items and their reported GI50.

Some solved cases for reference:
MOL_SMILES: CCc1ccc(Oc2c(-c3ccc(OCc4ccc(Cl)cc4)cc3O)nn(C)c2C(F)(F)F)cc1
EXPERIMENTAL_RESULT: 1.22 µM
--
MOL_SMILES: Cc1ccc(C(=O)Nc2ccc(Oc3cc4cnn(C)c4cc3-c3cn[nH]c3)c(F)c2)c(=O)n1-c1ccc(F)cc1
EXPERIMENTAL_RESULT: > 100 µM

Entry under review: COC(=O)[C@]12CC[C@@H](C)[C@H](C)[C@@H]1C1=CC[C@@H]3[C@@]4(C)C(C=O)=C[C@@](C)(COS(C)(=O)=O)C4=CC[C@@]3(C)[C@]1(C)CC2 . Reported GI50?
0.189 µM

Requested read-out: GI50. Entry: COc1cccc(-c2cc(=O)c3cc(N4CCN(C)CC4)ccc3[nH]2)c1
5.28 µM

----------
test system: NCI/ADR-RES ovarian; test: NCI tumour cell line growth inhibition, 48 h
QUANTITY: TGI

The following molecules have reported results that may help.
MOLECULE: Cc1ccc2ccc3c4ccccc4ccc3c2c1
TGI: > 100 µM
--
MOLECULE: C[C@]12CCc3nc(Nc4ccc(O)cc4)sc3C1=CC[C@@H]1[C@@H]2CC[C@]2(C)/C(=N/NC(N)=S)CC[C@@H]12
TGI: 7.51 µM
--
MOLECULE: Cc1cccc2c1nc1n2C(=O)c2ccccc2-1
TGI: > 100 µM

Form field: reported TGI of CC(C)(C)O/N=C/c1cc(NC(=S)c2ccccc2)ccc1Cl
33.5 µM

Entry CC(C)Oc1cccc(N2C(CCc3c[nH]c4ccc(Br)cc34)=NS(=O)(=O)c3cnccc32)c1 : reported TGI = ?
> 100 µM

// TGI lookup, key: COc1cccc2c(=O)oc(-c3ccccc3C)nc12
> 100 µM

Requested read-out: TGI. Entry: Cc1cc(-c2ccc(N=Nc3ccc4c(S(=O)(=O)O)cc(S(=O)(=O)O)c(N)c4c3O)c(C)c2)ccc1N=Nc1ccc2c(S(=O)(=O)O)cc(S(=O)(=O)O)c(N)c2c1O
> 100 µM

Endpoint output: TGI of CC(=O)OC12c3ccccc3C(c3ccccc31)C1C(=O)N(N=C(C)C)C(=O)C12 (configuration not stated) . Value?
> 100 µM

Which measured TGI value corresponds to N=C(N)n1cc(/C=N/N=C(N)N)cn1 ?
> 100 µM

Which TGI reading was recorded for the molecule CC(=O)O[C@H]1CC[C@@H](OC(C)=O)[C@H]2[C@H](O)[C@H](O)[C@@H]1n1c(=O)n(-c3ccccc3)c(=O)n12 ?
> 100 µM

Consider the molecule shown here: COc1ccc2oc(=O)c(-c3cc4c(c(C)n3)c(=O)oc3ccc(OC)cc34)cc2c1 What is its recorded TGI?
> 100 µM

Item COc1cc(C2c3cc4c(cc3[C@@H](Nc3ccc(F)cc3)C3COC[C@H]23)OCO4)cc(OC)c1O (some centres not stated) has what recorded TGI?
> 25 µM

State the recorded TGI for this entry: CC1(C)N=C(/C(Cl)=[N+](/[O-])C(=O)c2ccc(Cl)cc2)C(C)(C)N1O
63.8 µM

For COC(=O)C(Cc1ccccc1)NC(=O)C(CNC(=O)OCc1ccccc1)C(=O)OCc1ccccc1 (configuration not stated) , what is its reported TGI?
> 100 µM

Look at this molecule and give its reported TGI. O=c1[nH]c2c(Nc3c4ccccc4nc4ccccc34)c([N+](=O)[O-])c(Nc3c4ccccc4nc4ccccc34)c([N+](=O)[O-])c2[nH]1
2.24 µM

Quick one: TGI for O=C1c2cccc3c(N4CCOCC4)ccc(c23)C(=O)N1CCN1CCN(CCCCCN2CCN(CCN3C(=O)c4cccc5c(N6CCOCC6)ccc(c45)C3=O)CC2)CC1 ?
> 100 µM

Entry O=C(Nc1ccc(-n2cc(-c3ccncc3)c(-c3ccc(O)c(Cl)c3)n2)cc1)Nc1cc(C(F)(F)F)cc(C(F)(F)F)c1 : reported TGI = ?
22.5 µM

----------
// reported TGI for each item listed
tested on: MDA-N; experiment: NCI tumour cell line growth inhibition, 48 h

# get_value(readout='TGI', item= NC(=O)CSc1nc2ccccc2c(=O)n1N )
> 100 µM

----------
system: RPMI-8226 leukemia; assay: NCI tumour cell line growth inhibition, 48 h
QUANTITY: GI50

Reference set, count: 3
COMPOUND: COc1cc([C@@H]2c3cc4c(cc3[C@H](SC(=N)N)[C@H]3COC(=O)[C@H]23)OCO4)cc(OC)c1OC
QUANTITY: GI50
EXPERIMENTAL_RESULT: 0.409 µM

COMPOUND: N#Cc1cc(F)cc(Oc2ccc(S(=O)(=O)C(F)F)c3c2CC(F)(F)[C@H]3O)c1
QUANTITY: GI50
EXPERIMENTAL_RESULT: 19.2 µM

COMPOUND: CC(=O)Nc1cccc(C#Cc2cncnc2Nc2ccc(OCc3cccc(F)c3)c(Cl)c2)c1
QUANTITY: GI50
EXPERIMENTAL_RESULT: 12.7 µM

I'm curious: which GI50 was measured for OCC1OC(OC2(CO)OC(CO)C(O)C2O)C(O)C(O)C1O (stereo not drawn) tested on RPMI-8226 leukemia?
> 100 µM

Form field: GI50 recorded for OCc1ccc(-c2ccc(-c3ccc(CO)o3)o2)o1 with RPMI-8226 leukemia (enter value)
> 100 µM

Under RPMI-8226 leukemia: GI50 value of O=C1c2cccc3c(N4CCOCC4)ccc(c23)C(=O)N1CCN1CCN(CCCCCN2CCN(CCN3C(=O)c4cccc5c(N6CCOCC6)ccc(c45)C3=O)CC2)CC1 ?
23.2 µM

API: value(readout=GI50, system=RPMI-8226 leukemia) for record Cc1ccc(C(=O)Nc2ccc(Oc3cc4cnn(C)c4cc3-c3cn[nH]c3)c(F)c2)c(=O)n1-c1ccc(F)cc1
> 48 µM

GI50 of CCCCCCCCCCCCCC(=O)O[C@H]1CC[C@H](NC(=O)[C@H](OC)[C@H](O)[C@@H](O)[C@H](O)/C=C/C(C)C)C(=O)N(C)C1 on RPMI-8226 leukemia?
0.00392 µM

----------
tested on: CAKI-1 renal; test: NCI tumour cell line growth inhibition, 48 h
Item-by-item account of TGI

COMPOUND: Cc1cc2nc(N3C(=O)/C(=C/Cc4ccco4)N=C3c3ccccc3)sc2cc1C
TGI: > 100 µM
//
COMPOUND: CC(C)(C)OC(=O)N[C@H]1CC(=O)c2ccccc2N(CC(=O)O)C1=O
TGI: > 100 µM
//
COMPOUND: C/C(=N\NC(=S)NC(C)(C)C)c1nc2ncccc2[nH]1
TGI: 16.4 µM
//
COMPOUND: CC(=O)CCC1(C(=O)OCC(C)C)CCCC1=O (stereo not drawn)
TGI: > 100 µM
//
COMPOUND: COc1ccc(O[C@H](CO)C[C@@H]2COC(C)(C)O2)cc1
TGI: > 100 µM
//
COMPOUND: Cc1ccccc1Nc1cc(O)c2c(=O)cc(-c3ccccc3)oc2c1
TGI: > 100 µM

Fill in: TGI of O=C([O-])c1ccc([I+]c2ccccc2)cc1 is ___
> 100 µM

Given CN(C)CCNC(=O)Nc1ccc(N(C)c2ccnc(Nc3ccc(CS(C)(=O)=O)cc3)n2)cc1 , state its recorded TGI.
> 25 µM

Ref: PubChem BioAssay (NCI)
